Tested on: E. coli NIHJ JC-2
assay remarks: Antibacterial activity (MIC), agar dilution
Format: cell-based
measurement parameters: Escherichia coli, NIHJJC2, 20 h, E. coli NIHJ JC-2; 10^6 cells per ml; 37° C., 20 hours; read-out: MIC
Below: a set of entries, each annotated with reported MIC.
observed property: MIC (µg/mL)

In [3]: df
Out[3]:
                              smiles_record  number
0  O=C(O)c1cn(-c2ccc(O)cc2)c(-c2ccc(-c3ccc(O)cc3)s2)cc1=O    0.39
1  CNc1ccc(-c2cc(=O)c(C(=O)O)cn2-c2ccc(O)cc2)cc1C    0.39
2  Cc1cc(O)ccc1-n1cc(C(=O)O)c(=O)cc1C1CCCC1    0.78
3  Cc1ccc(-c2cc(=O)c(C(=O)O)cn2-c2ccc(F)cc2)s1    1.56
4  CN(C)c1ccc(-c2cc(=O)c(C(=O)O)cn2-c2ccc(OS(=O)(=O)O)cc2)cc1    1.56
5  Cc1cc(O)ccc1-n1cc(C(=O)O)c(=O)cc1-c1ccccc1     0.2
6  Cc1nc(-c2ccc(-c3cc(=O)c(C(=O)O)cn3-c3ccc(O)cc3C)cc2)cs1     0.1
7  Cc1nc(-c2ccc(-c3cc(=O)c(C(=O)O)cn3-c3ccc(F)cc3)cc2)cs1    1.56
8  Nc1ccc(-c2cc(=O)c(C(=O)O)cn2-c2ccc(F)cc2)cc1    0.78
9  CN(C)c1ccc(-c2cc(=O)c(C(=O)O)cn2-c2cccc(O)c2)cc1    0.39

====

Tested on: Ps. aeruginosa IFO3445
assay remarks: Antibacterial activity (MIC), agar dilution
Format: cell-based
measurement parameters: Pseudomonas aeruginosa; Ps. aeruginosa IFO3445; 10^6 cells per ml; 37° C., 20 hours; read-out: MIC
Below: a set of entries, each annotated with reported log10 MIC.
observed property: log10 MIC (log10 of the value in mg/L)

>>> df
                              smiles_record  observed_property  number
0  O=C(O)c1cn(-c2ccc(F)cc2)c(-c2ccc(Br)s2)cc1=O          log10 MIC    1.70
1  O=C(O)c1cn(-c2ccc(O)cc2)c(-c2ccc3sccc3c2)cc1=O          log10 MIC    0.19
2  O=C(O)c1cn(-c2ccc(O)cc2)c(-c2ccc(-c3ccccc3)cc2)cc1=O          log10 MIC    1.40
3  Cc1cc(O)ccc1-n1cc(C(=O)O)c(=O)cc1/C=C/c1ccccc1          log10 MIC    1.40
4  Cc1cc(O)ccc1-n1cc(C(=O)O)c(=O)cc1-c1ccc(N(C)C)cc1          log10 MIC    0.50
5  Cc1nc(-c2ccc(-c3cc(=O)c(C(=O)O)cn3-c3ccc(F)cc3)cc2)co1          log10 MIC    1.40
6  CN(C)c1ccc(-c2cc(=O)c(C(=O)O)cn2-c2cccc3c(O)cccc23)cc1          log10 MIC    1.10
7  O=C(O)c1cn(-c2ccc(O)cc2)c(-c2cc3ccccc3s2)cc1=O          log10 MIC    0.50
8  CC(=O)Oc1ccc(-n2cc(C(=O)OCCN(C)C)c(=O)cc2-c2ccc3c(ccn3C)c2)c(F)c1          log10 MIC    0.80
9  Nc1ccc(-c2cc(=O)c(C(=O)O)cn2-c2ccc(O)cc2)cc1          log10 MIC    1.40

====

System: Ps. aeruginosa GN3379*
assay remarks: Antibacterial activity (MIC), agar dilution
Format: cell-based
measurement parameters: Pseudomonas aeruginosa, GN3379, 20 h, Ps. aeruginosa GN3379, penicillinase-producing; 10^6 cells per ml
From the text: The amount of bacteria inoculated was 10^4 cells per plate (10^6 cells per ml). * Penicillinase-producing bacteria
Below: a set of entries, each annotated with reported MIC.
observed property: MIC (µg/mL)

>>> print(df.to_string())
                                    molecule  observed_property  number
 0  CC(=O)Oc1ccc(-n2cc(C(=O)O)c(=O)cc2-c2cc3ccccc3o2)cc1                MIC    6.25
 1  CC(=O)Oc1ccc(-n2cc(C(=O)O)c(=O)cc2-c2ccc(N(C)C)cc2)cc1                MIC    3.13
 2  CC(=O)Oc1ccc(-n2cc(C(=O)O)c(=O)cc2-c2cc3ccccc3s2)c(F)c1                MIC    3.13
 3  O=C(O)c1cn(-c2ccc(O)cc2)c(-c2ccc(-c3ccccn3)s2)cc1=O                MIC    3.13
 4  Cc1cc(O)ccc1-n1cc(C(=O)O)c(=O)cc1CCc1ccccc1                MIC    12.5
 5  O=C(O)c1cn(-c2ccc(F)cc2)c(-c2cc3ccccc3s2)cc1=O                MIC    12.5
 6  CN(C)c1ccc(-c2cc(=O)c(C(=O)O)cn2-c2ccc(F)cc2)cc1                MIC    12.5
 7  O=C(O)c1cn(-c2ccc(O)cc2)c(-c2ccc3cccnc3c2)cc1=O                MIC    12.5
 8  O=C(O)c1cn(-c2ccc(O)cc2)c(-c2ccc(-c3ccccc3)s2)cc1=O                MIC    3.13
 9  O=C(O)c1cn(-c2ccc(O)cc2F)c(-c2ccc(N3CCCC3)cc2)cc1=O                MIC    3.13
10  O=C(O)c1cn(-c2ccc(O)cc2)c(-c2ccc(N3CCCC3)cc2)cc1=O                MIC    3.13
11  CN(C)c1ccc(-c2cc(=O)c(C(=O)O)cn2-c2ccc(O)c(F)c2)cc1                MIC    3.13
12  O=C(O)c1cn(-c2ccc(O)cc2)c(-c2ccc(-c3ccc(O)cc3)s2)cc1=O                MIC    3.13
13  CN(C)c1ccc(-c2cc(=O)c(C(=O)O)cn2-c2ccc(O)cc2F)cc1                MIC    3.13
14  CC(=O)Oc1ccc(-n2cc(C(=O)OCCN(C)C)c(=O)cc2-c2ccc(N(C)C)cc2)cc1 [drawing 67]                MIC    6.25
15  O=C(O)c1cn(-c2ccc(O)cc2F)c(-c2cc3ccccc3s2)cc1=O                MIC    1.56

====

Below: a set of entries, each annotated with reported MIC.
System: Pro. vulgaris GN76**
assay remarks: Antibacterial activity (MIC), agar dilution
Assay type: cell-based
measurement parameters: Proteus vulgaris, 20 h; Pro. vulgaris GN76, cephalospolinase-producing; 10^6 cells per ml; read-out: MIC
observed property: MIC (µg/mL)

                                    molecule  number
 0  CN(C)c1ccc(-c2cc(=O)c(C(=O)O)cn2-c2ccc(O)c(F)c2)cc1    0.78
 1  Cc1ccc(-c2ccc(-c3cc(=O)c(C(=O)O)cn3-c3ccc(O)cc3)cc2)s1    0.39
 2  CC(=O)Oc1ccc(-n2cc(C(=O)OCC(O)CO)c(=O)cc2-c2ccc(N(C)C)cc2)cc1 (stereo not drawn)    6.25
 3  Cc1nc(-c2ccc(-c3cc(=O)c(C(=O)O)cn3-c3ccc(O)cc3C)cc2)co1    0.78
 4  CC(=O)Oc1ccc(-n2cc(C(=O)O)c(=O)cc2-c2cc3ccccc3s2)c(F)c1    0.39
 5  Cc1cc(O)ccc1-n1cc(C(=O)O)c(=O)cc1-c1ccc2c(ccn2C)c1    0.39
 6  Cc1nc2ccc(-c3cc(=O)c(C(=O)O)cn3-c3ccc(O)cc3)cc2s1    0.78
 7  COc1ccc(-c2ccc(-c3cc(=O)c(C(=O)O)cn3-c3ccc(O)cc3)cc2)s1    0.39
 8  Cc1cc(O)ccc1-n1cc(C(=O)O)c(=O)cc1/C=C/c1ccccc1    0.39
 9  O=C(O)c1cn(-c2ccc(O)cc2)c(-c2ccc3cccnc3c2)cc1=O    3.13
10  O=C(O)c1cn(-c2ccc(O)cc2)c(-c2ccc(-n3cccn3)cc2)cc1=O    1.56
11  CN(C)c1ccc(-c2cc(=O)c(C(=O)O)cn2-c2ccc(F)cc2F)cc1    0.78
12  COc1ccc(-c2cc(=O)c(C(=O)O)cn2-c2ccc(O)cc2C)cc1F    0.39
13  Cn1ccc2cc(-c3cc(=O)c(C(=O)O)cn3-c3ccc(O)cc3)ccc21    0.39
14  CC(=O)Oc1ccc(-n2cc(C(=O)OCCN(C)C)c(=O)cc2-c2ccc3c(ccn3C)c2)c(F)c1    0.78
15  O=C(O)c1cn(-c2ccc(F)cc2)c(-c2sccc2-c2ccc([N+](=O)[O-])cc2)cc1=O    3.13
16  Cc1nc(-c2ccc(-c3cc(=O)c(C(=O)O)cn3-c3ccc(O)cc3C)cc2)cs1    0.39
17  O=C(O)c1cn(-c2ccc(O)cc2)c(-c2ccc3ccsc3c2)cc1=O    0.39
18  Cn1ccc2cc(-c3cc(=O)c(C(=O)O)cn3-c3ccc(O)cc3F)ccc21    0.39
19  O=C(O)c1cn(-c2ccc(F)cc2)c(/C=C/c2ccccc2)cc1=O    3.13
20  O=C(O)c1cn(-c2ccc(O)cc2F)c(-c2ccc(N3CCCC3)cc2)cc1=O    0.78
